Biological target: F508del (Homo sapiens, UniProt P13569, DEL508-508)
Construct: expressed in transfected cells
Sequence (P13569 with tags, fused parts or gaps DEL508-508): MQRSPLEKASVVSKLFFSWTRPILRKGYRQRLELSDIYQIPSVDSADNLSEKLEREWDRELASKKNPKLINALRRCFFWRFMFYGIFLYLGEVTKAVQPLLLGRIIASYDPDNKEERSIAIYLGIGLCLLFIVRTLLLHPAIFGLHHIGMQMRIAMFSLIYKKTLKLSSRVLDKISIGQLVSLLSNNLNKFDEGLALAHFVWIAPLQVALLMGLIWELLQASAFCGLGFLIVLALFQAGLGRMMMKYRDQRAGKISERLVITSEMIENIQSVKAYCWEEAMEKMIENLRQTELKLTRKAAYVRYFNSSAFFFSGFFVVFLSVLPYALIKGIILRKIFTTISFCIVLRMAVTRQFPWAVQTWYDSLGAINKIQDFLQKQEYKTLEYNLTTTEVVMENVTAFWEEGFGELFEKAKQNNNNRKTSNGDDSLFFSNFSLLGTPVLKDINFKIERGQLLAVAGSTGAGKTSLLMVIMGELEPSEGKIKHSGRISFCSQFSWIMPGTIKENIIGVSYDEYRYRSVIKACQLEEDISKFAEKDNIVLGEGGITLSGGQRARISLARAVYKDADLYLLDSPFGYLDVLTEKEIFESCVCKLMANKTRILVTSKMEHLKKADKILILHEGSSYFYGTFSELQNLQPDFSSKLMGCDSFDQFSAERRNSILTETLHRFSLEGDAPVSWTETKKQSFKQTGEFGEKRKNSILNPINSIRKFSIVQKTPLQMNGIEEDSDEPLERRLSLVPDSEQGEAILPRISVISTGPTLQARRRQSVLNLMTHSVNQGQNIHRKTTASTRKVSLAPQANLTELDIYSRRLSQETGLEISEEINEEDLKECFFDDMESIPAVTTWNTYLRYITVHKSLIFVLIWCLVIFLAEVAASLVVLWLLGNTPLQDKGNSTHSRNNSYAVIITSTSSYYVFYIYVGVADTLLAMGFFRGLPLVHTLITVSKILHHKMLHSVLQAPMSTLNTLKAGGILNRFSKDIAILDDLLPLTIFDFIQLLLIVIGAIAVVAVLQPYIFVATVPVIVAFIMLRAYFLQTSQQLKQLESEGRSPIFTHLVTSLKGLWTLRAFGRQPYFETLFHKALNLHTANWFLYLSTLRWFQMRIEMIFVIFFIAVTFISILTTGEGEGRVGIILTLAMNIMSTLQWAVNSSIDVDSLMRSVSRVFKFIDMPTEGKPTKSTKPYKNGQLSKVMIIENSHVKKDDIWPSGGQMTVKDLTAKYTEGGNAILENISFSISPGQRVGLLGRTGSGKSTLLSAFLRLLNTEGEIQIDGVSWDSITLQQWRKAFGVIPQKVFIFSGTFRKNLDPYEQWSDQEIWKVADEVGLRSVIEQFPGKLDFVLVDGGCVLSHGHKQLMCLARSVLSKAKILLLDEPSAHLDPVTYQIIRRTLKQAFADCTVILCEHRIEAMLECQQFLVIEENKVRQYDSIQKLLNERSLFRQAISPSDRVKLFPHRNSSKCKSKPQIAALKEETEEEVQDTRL
Test: Protocol 2: FRET membrane potential optical assay (VIPR), identification of correction compounds
Format: cell-based
Settings: F508del CFTR modulator activity; compounds of Table 1; read-out: EC30
Value kind: EC30

Known EC30 results, listed for orientation:
Molecule	Recorded result
CC(C)Cn1ccc(-c2cnc(N3CC(C)CC3(C)C)c(C(=O)NS(=O)(=O)c3cccc(N)n3)c2)n1 (stereo not drawn)	3 to 10 µM
CC(C)Cn1ccc(-c2ccc(C(=O)NS(=O)(=O)c3cccc(N)n3)c(N3C[C@@H](C)CC3(C)C)n2)n1	< 3 µM
Cc1cc(C)nc(Nc2cccc(S(=O)(=O)NC(=O)c3cccnc3N3CC(C)CC3(C)C)n2)c1 (stereo not drawn)	3 to 10 µM
Cc1cc(C)cc(-c2cnc(N3CC(C)CC3(C)C)c(C(=O)NS(=O)(=O)c3cccc(N)n3)c2)c1 (stereo not drawn)	< 3 µM
CC1CN(c2ncccc2C(=O)NS(=O)(=O)c2cccc(Oc3ccc(Cl)c(Cl)c3)n2)C(C)(C)C1 (stereo not drawn)	< 3 µM

Q) Looking for the measured EC30 of `Cc1ccc(-c2ccc(C(=O)NS(=O)(=O)c3ccc[nH]c3=O)c(N3C[C@@H](C)CC3(C)C)n2)cc1F` , can you help?
A) < 3 µM

Q) What does the data say about its EC30? Entry: `Cc1ccc(-c2ccc(C(=O)NS(=O)(=O)c3ccc[nH]c3=O)c(N3C[C@@H](C)CC3(C)C)n2)c(C)c1`
A) < 3 µM

====

Biological target: F508del (Homo sapiens, UniProt P13569, DEL508-508)
Construct: expressed in transfected cells
Assay: Protocol 2: FRET membrane potential optical assay (VIPR), identification of correction compounds
Assay type: cell-based
Conditions: F508del CFTR modulator activity; compounds of Table 1; read-out: EC30
Value kind: EC30

Molecule	EC30
COc1ccc(F)c(-c2ccc(C(=O)NS(=O)(=O)c3cccnc3N)c(N3C[C@@H](C)CC3(C)C)n2)c1	< 3000 nM
CC1CN(c2ncccc2C(=O)NS(=O)(=O)c2cccc(OCc3ccccc3C(F)(F)F)n2)C(C)(C)C1 (centres unmarked)	< 3000 nM
C[C@@H]1CN(c2nc(N3CCOC(C)(C)C3)c(F)cc2C(=O)NS(=O)(=O)c2cccc(N)n2)C(C)(C)C1	3000 to 10000 nM
C[C@@H]1CN(c2nc(-c3cc4ccccc4n3C(=O)OC(C)(C)C)ccc2C(=O)NS(=O)(=O)c2cccnc2N)C(C)(C)C1	3000 to 10000 nM
CC1CN(c2ncccc2C(=O)NS(=O)(=O)c2cccc(Nc3ccc(-c4ccccc4)cc3)n2)C(C)(C)C1 (centres unmarked)	< 3000 nM
COc1cc(C)cc(-c2cnc(N3CC(C)CC3(C)C)c(C(=O)NS(=O)(=O)c3cccc(N)n3)c2)c1 (centres unmarked)	< 3000 nM
COc1ccc(OC)c(Nc2cccc(S(=O)(=O)NC(=O)c3cccnc3N3CC(C)CC3(C)C)n2)c1 (centres unmarked)	< 3000 nM
CC(C)COc1cc(F)cc(-c2ccc(C(=O)NS(=O)(=O)c3cccc(N)n3)c(N3CC(C(F)(F)F)CC3(C)C)n2)c1 (centres unmarked)	< 3000 nM

Q) Fill blank: measured EC30 of the molecule `C[C@@H]1CN(c2nc(-c3ccc4ccccc4c3)ccc2C(=O)NS(=O)(=O)c2cccnc2N)C(C)(C)C1` is ____.
A) < 3000 nM

====

Molecular target: F508del (Homo sapiens, UniProt P13569, DEL508-508)
Construct: expressed in transfected cells
Test: Protocol 2: FRET membrane potential optical assay (VIPR), identification of correction compounds
Assay type: cell-based
Details: F508del CFTR modulator activity; compounds of Table 1; read-out: EC30
# EC30 listing for each entry below

Reference set, count: 4
Molecule	EC30
C[C@@H]1CN(c2nc(-c3ccc(OC(F)(F)F)cc3)ccc2C(=O)NS(=O)(=O)c2ccc[nH]c2=O)C(C)(C)C1 [Compound 2234]	< 3 µM
Cc1ccc(-c2ccc(C(=O)NS(=O)(=O)c3ccc[nH]c3=O)c(N3C[C@@H](C)CC3(C)C)n2)cc1C [Compound 2154]	< 3 µM
CC(C)COc1cc(F)cc(-c2ccc(C(=O)NS(=O)(=O)c3cccc(N)n3)c(N3CC4(CCC4)CC3(C)C)n2)c1 [Compound 2589]	< 3 µM
COc1cccc(Oc2cccc(S(=O)(=O)NC(=O)c3cccnc3N3CC(C)CC3(C)C)n2)c1 (centres unmarked) [Compound 2551]	< 3 µM

Q) Suppose we examine the molecule COCCCNc1cccc(S(=O)(=O)NC(=O)c2cccnc2N2CC(C)CC2(C)C)n1 (centres unmarked) [Compound 2135] ; what EC30 value has been reported?
A) 3 to 10 µM

Q) Suppose we examine the molecule Cc1ccnc(Nc2cccc(S(=O)(=O)NC(=O)c3cccnc3N3CC(C)CC3(C)C)n2)c1 (centres unmarked) [Compound 2082] ; what EC30 value has been reported?
A) 3 to 10 µM

Q) Sample CC(C)COc1cc(F)cc(-c2ccc(C(=O)NS(=O)(=O)c3cccc(N)n3)c(N3CCC(C)CC3(C)C)n2)c1 (centres unmarked) [Compound 2581] — what was its EC30?
A) < 3 µM

Q) Param item = C[C@@H]1CN(c2ncccc2C(=O)NS(=O)(=O)N2CC[C@@H](NCc3ccc(OC(C)(C)C)cc3)C2)C(C)(C)C1 [Compound 2693] ; retrieve measured EC30.
A) 3 to 10 µM

Q) Please report the recorded EC30 for CCOc1cccc(-c2ccc(C(=O)NS(=O)(=O)N3CC[C@H](N)C3)c(N3C[C@@H](C)CC3(C)C)n2)c1 [Compound 2570] .
A) 3 to 10 µM

Q) EC30 lookup needed for Cc1cccc(-c2ccc(C(=O)NS(=O)(=O)N3CC[C@H](N)C3)c(N3C[C@@H](C)CC3(C)C)n2)c1 [Compound 2339] , thanks.
A) < 3 µM

Q) Report EC30 for CC(C)COc1cc(F)cc(-c2nc(N3C[C@@H](C)CC3(C)C)c(C(=O)NS(=O)(=O)c3cccc(N)n3)cc2F)c1 [Compound 2473] please.
A) < 3 µM

====

Listing of recorded EC30 by entry.
Biological target: F508del (Homo sapiens, UniProt P13569, DEL508-508)
Construct: expressed in transfected cells
Test: Protocol 2: FRET membrane potential optical assay (VIPR), identification of correction compounds
Assay type: cell-based
Conditions: F508del CFTR modulator activity; compounds of Table 1; read-out: EC30

Q) Query the reported EC30 for F508del (Homo sapiens, UniProt P13569, DEL508-508); item: `C[C@@H]1CN(c2nc(-c3cc(C(F)(F)F)nn3C)ccc2C(=O)NS(=O)(=O)c2cccnc2N)C(C)(C)C1`
A) < 3 µM

Q) Query EC30 on F508del (Homo sapiens, UniProt P13569, DEL508-508) for CC1CN(c2ncccc2C(=O)NS(=O)(=O)c2cccc(NCCc3ccncc3)n2)C(C)(C)C1 (stereo not drawn)
A) 3 to 10 µM

====

Biological target: F508del (Homo sapiens, UniProt P13569, DEL508-508)
Construct: expressed in transfected cells
Assay: Protocol 2: FRET membrane potential optical assay (VIPR), identification of correction compounds
Format: cell-based
Settings: F508del CFTR modulator activity; compounds of Table 1; read-out: EC30
Value kind: EC30

As a guide, the following entries are already answered.
Molecule	EC30
CC1CN(c2ncccc2C(=O)NS(=O)(=O)c2cccc(Oc3ccc4c(c3)CCCC4=O)n2)C(C)(C)C1 (stereo not shown)	3000 to 10000 nM
C[C@@H]1CN(c2nc(CCC3CC3)ccc2C(=O)NS(=O)(=O)c2cccnc2N)C(C)(C)C1	< 3000 nM
CC1CN(c2ncccc2C(=O)NS(=O)(=O)c2cccc(Nc3c(F)cc(F)cc3F)n2)C(C)(C)C1 (stereo not shown)	< 3000 nM
C[C@@H]1CN(c2nc([C@H]3CC[C@@H](C(F)(F)F)CC3)ccc2C(=O)NS(=O)(=O)c2ccc[nH]c2=O)C(C)(C)C1	< 3000 nM
CC1CN(c2ncccc2C(=O)NS(=O)(=O)c2cccc(Nc3cc(F)cc(F)c3)n2)C(C)(C)C1 (stereo not shown)	< 3000 nM

Q) Any idea what EC30 came out for `C[C@@H]1CN(c2nc(-c3cncc4ccccc34)ccc2C(=O)NS(=O)(=O)c2cccnc2N)C(C)(C)C1` on F508del (Homo sapiens, UniProt P13569, DEL508-508)?
A) < 3000 nM

Q) Value wanted: EC30 (F508del (Homo sapiens, UniProt P13569, DEL508-508)) of entry CC(C)=CCOc1cccc(S(=O)(=O)NC(=O)c2cccnc2N2CC(C)CC2(C)C)n1 (stereo not shown)
A) < 3000 nM

Q) Query the reported EC30 for F508del (Homo sapiens, UniProt P13569, DEL508-508); item: CC1CN(c2ncccc2C(=O)NS(=O)(=O)c2cccc(N3CCC(CCN(C)C)CC3)n2)C(C)(C)C1 (stereo not shown)
A) 3000 to 10000 nM

Q) Value wanted: EC30 (F508del (Homo sapiens, UniProt P13569, DEL508-508)) of entry `Cc1nn(C)c(C)c1-c1ccc(C(=O)NS(=O)(=O)c2cccnc2N)c(N2C[C@@H](C)CC2(C)C)n1`
A) 3000 to 10000 nM

Q) Missing value: EC30, F508del (Homo sapiens, UniProt P13569, DEL508-508), entry `Cc1cccc(-c2ccc(C(=O)NS(=O)(=O)c3ccc[nH]c3=O)c(N3C[C@@H](C)CC3(C)C)n2)c1` . Fill in?
A) < 3000 nM

Q) Request - read-out EC30 | tested on F508del (Homo sapiens, UniProt P13569, DEL508-508) | molecule CC1CN(c2ncccc2C(=O)NS(=O)(=O)c2cccc(NCC3CCCC3)n2)C(C)(C)C1 (stereo not shown)
A) < 3000 nM

Q) Checklist item: EC30 tested on F508del (Homo sapiens, UniProt P13569, DEL508-508), entry `Cc1cc(-c2ccc(C(=O)NS(=O)(=O)c3cccc(N)n3)c(N3C[C@@H](C)CC3(C)C)n2)cc(OCCOC(C)C)n1` , value?
A) < 3000 nM

Q) What is its EC30 for F508del (Homo sapiens, UniProt P13569, DEL508-508)? Entry: CC1CN(c2ncccc2C(=O)NS(=O)(=O)c2cccc(N3CCN(c4cnccn4)CC3)n2)C(C)(C)C1 (stereo not shown)
A) 3000 to 10000 nM

Q) Query the reported EC30 for F508del (Homo sapiens, UniProt P13569, DEL508-508); item: CCC(COC)Nc1cccc(S(=O)(=O)NC(=O)c2cccnc2N2CC(C)CC2(C)C)n1 (stereo not shown)
A) 3000 to 10000 nM

Q) Identify the measured EC30 of CC1CN(c2ncccc2C(=O)NS(=O)(=O)c2cccc(OCc3cccc(N(C)C)c3)n2)C(C)(C)C1 (stereo not shown) for F508del (Homo sapiens, UniProt P13569, DEL508-508).
A) < 3000 nM

Q) Notebook: pull reported EC30 for F508del (Homo sapiens, UniProt P13569, DEL508-508), entry Cc1cccc(CNc2cccc(S(=O)(=O)NC(=O)c3cccnc3N3CC(C)CC3(C)C)n2)c1 (stereo not shown)
A) < 3000 nM

Q) Record CC1CN(c2ncccc2C(=O)NS(=O)(=O)c2cccc(OCCC3CCCC3)n2)C(C)(C)C1 (stereo not shown) : what is its EC30 with F508del (Homo sapiens, UniProt P13569, DEL508-508)?
A) < 3000 nM
